Where do these numbers come from? They come from the supplement of paper PMC9112550.

Below, each of the sequences is paired with its reported shrunken log2 fold change value.
# System: Escherichia coli TOP10
# TEST METHOD NOTES: shrunken log2 fold change of peptide-encoding DNA abundance (4.5 h post-induction vs induction); higher = less antimicrobial activity (less host growth inhibition)
# TEST PARAMETERS: time post-induction: 4.5 h; library: site-saturation at positions 5, 18, 19, 20
// no unit, no text: just the number

>  <ORDERED RESIDUES>
RRIRKRPPRLPRPRPRPKNSPRP

>  <shrunken log2 fold change>
-0.0637

$$$$
>  <ORDERED RESIDUES>
RRIRMRPPRLPRPRPRPVNDPRP

>  <shrunken log2 fold change>
-0.00185

$$$$
>  <ORDERED RESIDUES>
RRIRLRPPRLPRPRPRPRIMPRP

>  <shrunken log2 fold change>
-0.333

$$$$

Give the reported shrunken log2 fold change for `RRIRHRPPRLPRPRPRPAKNPRP` (system: Escherichia coli TOP10).
-0.207

Request body: readout shrunken log2 fold change, system Escherichia coli TOP10, query `RRIRWRPPRLPRPRPRPDLMPRP` . Return the value.
0.325

# get_value(readout= shrunken log2 fold change, system= Escherichia coli TOP10) for `RRIRERPPRLPRPRPRPRTQPRP`
0.111

Param readout = shrunken log2 fold change; param system = Escherichia coli TOP10; param query = `RRIRDRPPRLPRPRPRPDPSPRP` ; response: value
-0.0385

Give Escherichia coli TOP10 shrunken log2 fold change for `RRIRFRPPRLPRPRPRPFVQPRP`
-0.694

Requested read-out shrunken log2 fold change, target or system Escherichia coli TOP10, entry `RRIRARPPRLPRPRPRPTNCPRP`;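 further: peptides expressed intracellularly from a pBAD plasmid library in pooled LB shake-flask culture, induced with 0.3% L-arabinose, DNA abundance read by NGS, three biological replicates, DESeq2 with apeglm shrinkage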
0.269
